Target: T1, human CD3εδ-Fc heterodimer (Hu CD3ε Fc / CD3δ Fc-HIS) (human, UniProt P04234 22-100)
T1 construct: range 22-100; Produced in HEK 293 cells with a heterologous signal peptide; heterodimer purified by Ni Sepharose and Mono Q; also called Hu CD3εδ Fc heterodimer; CD3εδ Fc-HIS heterodimer; not shown: Fc-HIS part of CD3δ Fc-HIS
T1 sequence (chain, as listed by the source mutant, form in doubt, chain 1 of 2): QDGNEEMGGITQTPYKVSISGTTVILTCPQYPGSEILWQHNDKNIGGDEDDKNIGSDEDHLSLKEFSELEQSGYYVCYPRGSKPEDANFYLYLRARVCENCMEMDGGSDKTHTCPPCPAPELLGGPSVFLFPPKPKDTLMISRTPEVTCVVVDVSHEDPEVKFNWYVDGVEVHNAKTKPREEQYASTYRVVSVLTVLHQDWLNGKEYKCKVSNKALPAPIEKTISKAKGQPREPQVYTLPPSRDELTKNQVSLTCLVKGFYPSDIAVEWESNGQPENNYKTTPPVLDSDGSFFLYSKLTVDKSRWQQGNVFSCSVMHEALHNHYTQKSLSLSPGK
T1 sequence (P04234 22-100, stated change not applied, form in doubt, chain 2 of 2): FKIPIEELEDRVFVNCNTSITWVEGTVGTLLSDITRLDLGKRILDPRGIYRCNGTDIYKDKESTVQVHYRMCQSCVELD
Assay: BLI (Octet), yeast-produced IgG on AHC sensor, CD3εδ-Fc 100 nM in solution, pH 7.4
Consider the following binders; for each one, report its Kd.
Field: numeric (nM). Do not append units.

Exam item: For the binder ADI-26906 (Antibody No. 1), human IgG1 (antibody, V domains shown, Non-pH-dependent parent; Tested as human IgG1 (yeast-produced aglycosylated, or CHO-produced); also called Ab No. 1) VH: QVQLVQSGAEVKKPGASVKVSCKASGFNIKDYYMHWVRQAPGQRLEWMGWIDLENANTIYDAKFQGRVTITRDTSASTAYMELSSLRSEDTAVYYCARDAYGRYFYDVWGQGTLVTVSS VL: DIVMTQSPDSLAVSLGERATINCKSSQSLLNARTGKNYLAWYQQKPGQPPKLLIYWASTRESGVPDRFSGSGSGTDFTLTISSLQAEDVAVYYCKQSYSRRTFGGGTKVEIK , what Kd is on record?
Marked response: 4.35

Exam item: Another binder to check: ADI-74968 (Antibody No. 6), human IgG1 (antibody, V domains shown, Tested as human IgG1 (yeast-produced aglycosylated, or CHO-produced)) VH: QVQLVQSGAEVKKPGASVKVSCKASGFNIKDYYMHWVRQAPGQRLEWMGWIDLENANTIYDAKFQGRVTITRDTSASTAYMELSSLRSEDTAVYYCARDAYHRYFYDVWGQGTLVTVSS VL: DIVMTQSPDSLAVSLGERATINCKSSQSLLNARTGHNYLAWYQQKPGQPPKLLIYWASTRESGVPDRFSGSGSGTDFTLTISSLQAEDVAVYYCKQSYSHRTFGGGTKVEIK
Marked response: 13

Exam item: Another binder to check: ADI-74965 (Antibody No. 3), human IgG1 (antibody, V domains shown, Tested as human IgG1 (yeast-produced aglycosylated, or CHO-produced)) VH: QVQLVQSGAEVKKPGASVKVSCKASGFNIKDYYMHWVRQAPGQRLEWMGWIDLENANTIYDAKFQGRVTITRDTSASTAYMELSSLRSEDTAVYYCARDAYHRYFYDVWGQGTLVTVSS VL: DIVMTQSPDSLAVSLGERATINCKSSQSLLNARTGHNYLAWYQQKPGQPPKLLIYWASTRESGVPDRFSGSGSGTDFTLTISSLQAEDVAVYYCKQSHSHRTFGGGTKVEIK
Marked response: 13.7

Exam item: Another binder to check: ADI-79843 (Antibody No. 8), human IgG1 (antibody, V domains shown, Tested as yeast-produced aglycosylated human IgG1) VH: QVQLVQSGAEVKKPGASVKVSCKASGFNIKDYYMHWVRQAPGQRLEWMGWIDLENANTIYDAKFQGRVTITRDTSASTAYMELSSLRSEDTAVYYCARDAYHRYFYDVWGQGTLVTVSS VL: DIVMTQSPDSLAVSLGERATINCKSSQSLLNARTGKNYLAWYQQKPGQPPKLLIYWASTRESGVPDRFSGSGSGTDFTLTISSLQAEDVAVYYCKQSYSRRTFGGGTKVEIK
Marked response: 6.64

Exam item: Another binder to check: ADI-74967 (Antibody No. 5), human IgG1 (antibody, V domains shown, Tested as human IgG1 (yeast-produced aglycosylated, or CHO-produced)) VH: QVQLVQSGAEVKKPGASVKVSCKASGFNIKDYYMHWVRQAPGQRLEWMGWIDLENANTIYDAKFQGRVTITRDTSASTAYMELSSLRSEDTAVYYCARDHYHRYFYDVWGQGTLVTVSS VL: GIVMTQSPDSLAVSLGERATINCKSSQSLLNARTGKNYLAWYQQKPGQPPKLLIYWASTRESGVPDRFSGSGSGTDFTLTISSLQAEDVAVYYCKQSHSHRTFGGGTKVEIK
Marked response: 14.5

Exam item: Another binder to check: ADI-79842 (Antibody No. 7), human IgG1 (antibody, V domains shown, Tested as yeast-produced aglycosylated human IgG1) VH: QVQLVQSGAEVKKPGASVKVSCKASGFNIKDYYMHWVRQAPGQRLEWMGWIDLENANTIYDAKFQGRVTITRDTSASTAYMELSSLRSEDTAVYYCARDHYGRYFYDVWGQGTLVTVSS VL: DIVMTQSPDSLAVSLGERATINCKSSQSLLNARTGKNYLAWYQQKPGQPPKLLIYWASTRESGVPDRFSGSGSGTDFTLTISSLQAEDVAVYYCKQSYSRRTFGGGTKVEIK
Marked response: 16.1

Exam item: Another binder to check: ADI-79845 (Antibody No. 11), human IgG1 (antibody, V domains shown, Tested as yeast-produced aglycosylated human IgG1) VH: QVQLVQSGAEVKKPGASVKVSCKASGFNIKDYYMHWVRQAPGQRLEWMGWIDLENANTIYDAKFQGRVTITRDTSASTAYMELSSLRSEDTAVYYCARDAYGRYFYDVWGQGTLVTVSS VL: DIVMTQSPDSLAVSLGERATINCKSSQSLLNARTGKNYLAWYQQKPGQPPKLLIYWASTRESGVPDRFSGSGSGTDFTLTISSLQAEDVAVYYCKQSYSHRTFGGGTKVEIK
Marked response: 9.87

Exam item: Another binder to check: ADI-79844 (Antibody No. 10), human IgG1 (antibody, V domains shown, Tested as yeast-produced aglycosylated human IgG1) VH: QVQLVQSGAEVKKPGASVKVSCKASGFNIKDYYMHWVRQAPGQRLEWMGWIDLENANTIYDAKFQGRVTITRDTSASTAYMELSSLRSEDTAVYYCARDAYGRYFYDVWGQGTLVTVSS VL: DIVMTQSPDSLAVSLGERATINCKSSQSLLNARTGKNYLAWYQQKPGQPPKLLIYWASTRESGVPDRFSGSGSGTDFTLTISSLQAEDVAVYYCKQSHSRRTFGGGTKVEIK
Marked response: 6.51

Exam item: Another binder to check: ADI-79848 (Antibody No. 9), human IgG1 (antibody, V domains shown, Tested as yeast-produced aglycosylated human IgG1) VH: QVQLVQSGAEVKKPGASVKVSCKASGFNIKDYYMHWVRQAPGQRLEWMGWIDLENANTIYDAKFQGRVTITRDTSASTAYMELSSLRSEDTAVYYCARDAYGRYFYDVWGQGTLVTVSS VL: DIVMTQSPDSLAVSLGERATINCKSSQSLLNARTGHNYLAWYQQKPGQPPKLLIYWASTRESGVPDRFSGSGSGTDFTLTISSLQAEDVAVYYCKQSYSRRTFGGGTKVEIK
Marked response: 11.6
